Biological target: M3 muscarinic receptor (Rattus norvegicus)
Construct: from tissue; host or cells: rat submandibular gland membrane homogenate
Sequence (P08483 whole entry): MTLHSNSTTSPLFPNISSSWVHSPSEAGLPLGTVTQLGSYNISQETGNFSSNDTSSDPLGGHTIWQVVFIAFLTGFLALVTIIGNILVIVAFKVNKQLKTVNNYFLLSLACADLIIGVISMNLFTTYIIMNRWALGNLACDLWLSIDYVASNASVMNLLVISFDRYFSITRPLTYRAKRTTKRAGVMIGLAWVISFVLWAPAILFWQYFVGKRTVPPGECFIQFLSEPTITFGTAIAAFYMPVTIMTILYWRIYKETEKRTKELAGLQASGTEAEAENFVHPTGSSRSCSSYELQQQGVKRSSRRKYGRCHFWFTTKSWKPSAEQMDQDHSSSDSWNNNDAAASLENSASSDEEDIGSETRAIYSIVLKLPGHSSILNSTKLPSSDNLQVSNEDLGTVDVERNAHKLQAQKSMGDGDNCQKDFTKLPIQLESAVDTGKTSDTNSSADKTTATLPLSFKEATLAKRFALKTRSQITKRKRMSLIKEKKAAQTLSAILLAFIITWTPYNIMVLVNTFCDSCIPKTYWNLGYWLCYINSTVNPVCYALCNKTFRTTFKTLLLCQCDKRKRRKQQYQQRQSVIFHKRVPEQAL
Experiment: Radioligand binding assay, [3H]-N-methylscopolamine, rat submandibular gland membranes
Settings: [3H]NMS, Ki by Cheng & Prusoff, read-out: Receptor Binding Assay pKi M3 (converted)
Ki: recorded values

q: Reported Ki for COC(=O)c1ccc(CCN2CC3C(C2)C3NC(=O)C(O)(c2ccccc2)C2CCCC2)cc1 (centres unmarked) : what is it?
a: 43.7 nM

q: Likewise for O=C(NC1C2CN(Cc3ccccc3)CC21)C(O)c1ccccc1 (centres unmarked) ?
a: > 1000 nM

q: Follow-up entry: O=C(NC1C2CN(Cc3cccs3)CC21)C(O)(c1ccccc1)C1CCCCC1 (centres unmarked)
a: 129 nM

q: Lookup Cc1ccc(C(C)N2CC3C(C2)C3NC(=O)C(O)(c2ccccc2)C2CCCC2)cc1 (centres unmarked)
a: 58.9 nM

q: Here is the next compound: O=C(NC1C2CN(CCc3ccc(Cl)cc3)CC21)C(O)(c1ccccc1)C1CCCC1 (centres unmarked)
a: 79.4 nM

Each recorded value in this set is attributed to patent US7488748B2.
